Tested on: U2OS
MEASUREMENT_DESCRIPTION: Multiplex assay against U2OS
Format: toxicity, cell-based
CONDITION_LABEL: human, 48 h, 1 µM, compound concentration 1 uM, replicate 1
QUANTITY_KIND: Population Hoechst High Intensity Objects (%)

- CCCn1c(=O)c2[nH]c(C34CC5CC(CC3C5)C4)nc2n(CCC)c1=O [ROLOFYLLINE]: 4
- CCC(=O)O[C@]1(C(=O)SCF)[C@H](C)C[C@H]2[C@@H]3C[C@H](F)C4=CC(=O)C=C[C@]4(C)[C@@]3(F)[C@@H](O)C[C@@]21C [FLUTICASONE PROPIONATE]: 2
- Nc1ccc(C(=O)Nc2cccc(-c3nc(N4CCOCC4)c4oc5ncccc5c4n3)c2)cn1: 9
- Cc1nc(Cc2cccc(C(F)(F)F)c2)sc1-c1ccc(C(N)=O)nc1 [TP-024n]: 3
- COc1cc2c(NC3CCN(C(C)C)CC3)nc(N3CCC(F)(F)CC3)nc2cc1OCCCN1CCCC1: 10

----------
System: HEK-293T
MEASUREMENT_DESCRIPTION: Multiplex assay against HEK293T
Assay type: toxicity, cell-based
CONDITION_LABEL: human, 48 h, 10 µM, compound concentration 10 uM, replicate 1
Listed below: Population Membrane Permeable-Phenotype (%) values for each entry.
QUANTITY_KIND: Population Membrane Permeable-Phenotype (%)

• Nc1nc2c(c(N3CCNCC3)n1)CCC1=C2[C@@H]2CCCC[C@@H]2O1 = 1
• CCC(=O)O[C@]1(C(=O)SCF)[C@H](C)C[C@H]2[C@@H]3C[C@H](F)C4=CC(=O)C=C[C@]4(C)[C@@]3(F)[C@@H](O)C[C@@]21C [FLUTICASONE PROPIONATE] = 10
• CCCn1c(=O)c2[nH]c(C34CC5CC(CC3C5)C4)nc2n(CCC)c1=O = 4
• C1=N/C2=N/c3ccc(OCCN4CCCC4)c(c3)COC/C=C\COCc3cccc(c3)C(=C1)N2 = 0
• COc1ccc(NS(=O)(=O)c2sc3ccc(Cl)cc3c2C)cc1N1CCNCC1.Cl = 0
• CC(=O)c1cc(-c2cc(C(=O)NC3CC3)ccc2C)c2ncccn12 = 1
• CNc1oc(-c2cccc3ccccc23)nc1C#N = 0
• Cc1nc(Cc2cccc(C(F)(F)F)c2)sc1-c1ccc(C(N)=O)nc1 [TP-024n] = 2
• CCn1c(-c2nonc2N)nc2cnc(Oc3cccc(NC(=O)c4ccc(OCCN5CCOCC5)cc4)c3)cc21 [GSK-269962A] = 1
• O=C(O)c1ccc2cc(-c3ccc(O)c(C45CC6CC(CC(C6)C4)C5)c3)ccc2c1 = 1
• CNC(=O)c1nn(C)c2c1C(C)(C)Cc1cnc(Nc3ccc(N4CCN(C)CC4)cc3)nc1-2 = 0
• Cl.Cl.Nc1ncnc2c1c(-c1cccc(OCc3ccccc3)c1)cn2[C@H]1C[C@@H](CN2CCC2)C1 = 0
• COc1cc2c(NC3CCN(C(C)C)CC3)nc(N3CCC(F)(F)CC3)nc2cc1OCCCN1CCCC1 = 3
• Cc1cc2c(cc1N1C(=O)c3cccc4c(CCCO)ccc(c34)C1=O)n(C)c(=O)n2C = 5

----------
Tested on: Fibroblast
MEASUREMENT_DESCRIPTION: Multiplex assay against human fibroblast
Format: toxicity, cell-based
CONDITION_LABEL: 12 h, 1 µM, compound concentration 1 uM, replicate 2
Define the label as satisfied when Population Normal (%) is strictly less than 90% and as not satisfied in all remaining cases.

- CCOc1cc2ncc(C#N)c(Nc3ccc(OCc4cccc(F)c4)c(Cl)c3)c2cc1NC(=O)/C=C/CN(C)C [HKI-357]: satisfied
- Cc1cn(-c2cc(NC(=O)c3ccc4c(c3)CN(c3cncnc3)C[C@@H]4C)cc(C(F)(F)F)c2)cn1: satisfied
- CN(C)CCOc1ccc(-c2nc(-c3ccncc3)c(-c3ccc4c(c3)CC/C4=N\O)[nH]2)cc1 [SB590885]: satisfied
- Cl.Cl.Nc1ncnc2c1c(-c1cccc(OCc3ccccc3)c1)cn2[C@H]1C[C@@H](CN2CCC2)C1: not satisfied

----------
Listed below: Growth Rate values for each entry.
Tested on: Fibroblast
MEASUREMENT_DESCRIPTION: Incucyte cell viability with human fibroblast; further: filed as whole numbers so only -1 and 0 and 1 occur
Assay type: toxicity, cell-based
CONDITION_LABEL: 24 h, 10 µM, compound concentration 10 uM, replicate number 1, timepoint 24 hours
QUANTITY_KIND: Growth Rate

• CS(=O)(=O)N1CCN(Cc2cc3nc(-c4cccc5[nH]ncc45)nc(N4CCOCC4)c3s2)CC1 = 0
• CN(C)C/C=C/C(=O)Nc1cc2c(Nc3ccc(F)c(Cl)c3)ncnc2cc1O[C@H]1CCOC1.O=C(O)/C=C\C(=O)O.O=C(O)/C=C\C(=O)O [AFATINIB DIMALEATE] = 0
• CN(C)C(=O)c1ccc(-c2cc(C(=O)N(C)C3CCCC3)no2)cc1O = 1
• C[C@@H]1CN(c2cc(-c3nn(C)c4ccc(OC5(C)CC5)cc34)ncn2)C[C@H](C)O1 = 0
• Cc1cc2c(cc1N1C(=O)c3cccc4c(CCCO)ccc(c34)C1=O)n(C)c(=O)n2C = 0
• CC(C)(C)c1cnc(CSc2cnc(NC(=O)C3CCNCC3)s2)o1 = 0
• CN1CC(=O)N=C1NC(=O)Nc1cccc(Cl)c1 [FENOBAM ANHYDROUS] = 1
• Oc1ccc(-c2nc3cc(O)cc(Br)c3o2)cc1 = 1

----------
System: HEK-293T
MEASUREMENT_DESCRIPTION: Multiplex assay against HEK293T
Type: toxicity, cell-based
CONDITION_LABEL: human, 24 h, 1 µM, compound concentration 1 uM, replicate 1
QUANTITY_KIND: Population Mitotic Cells (%)

• Cc1cn(-c2cc(NC(=O)c3ccc4c(c3)CN(c3cncnc3)C[C@@H]4C)cc(C(F)(F)F)c2)cn1 = 76%
• CNC(=O)c1nn(C)c2c1C(C)(C)Cc1cnc(Nc3ccc(N4CCN(C)CC4)cc3)nc1-2 [MILCICLIB] = 56%
• CN(C)C/C=C/C(=O)Nc1cc2c(Nc3ccc(F)c(Cl)c3)ncnc2cc1O[C@H]1CCOC1.O=C(O)/C=C\C(=O)O.O=C(O)/C=C\C(=O)O [AFATINIB DIMALEATE] = 74%
• CCCn1c(=O)c2[nH]c(C34CC5CC(CC3C5)C4)nc2n(CCC)c1=O [ROLOFYLLINE] = 49%
• Nc1nc2c(c(N3CCNCC3)n1)CCC1=C2[C@@H]2CCCC[C@@H]2O1 = 50%
• COc1cc2c(NC3CCN(C(C)C)CC3)nc(N3CCC(F)(F)CC3)nc2cc1OCCCN1CCCC1 = 38%
• CC(C)N1CCC(C)(C)c2cc(C#Cc3ccc(C(=O)O)cc3)ccc21 = 41%

----------
System: U2OS
MEASUREMENT_DESCRIPTION: Multiplex assay against U2OS
Format: toxicity, cell-based
CONDITION_LABEL: human, 12 h, 10 µM, compound concentration 10 uM, replicate 2
Listed below: Population Healthy Nuclei (%) values for each entry.
QUANTITY_KIND: Population Healthy Nuclei (%)

- c1ccc2oc(-c3csc(C4CCN(Cc5nc6ncccc6[nH]5)CC4)n3)cc2c1: 88%
- Cc1cn(-c2cc(NC(=O)c3ccc4c(c3)CN(c3cncnc3)C[C@@H]4C)cc(C(F)(F)F)c2)cn1: 87%
- CC(C)(C)c1cnc(CSc2cnc(NC(=O)C3CCNCC3)s2)o1: 63%
- Cl.Cl.Nc1ncnc2c1c(-c1cccc(OCc3ccccc3)c1)cn2[C@H]1C[C@@H](CN2CCC2)C1: 47%
- Nc1ccc(C(=O)Nc2cccc(-c3nc(N4CCOCC4)c4oc5ncccc5c4n3)c2)cn1: 15%
- CCCn1c(=O)c2[nH]c(C34CC5CC(CC3C5)C4)nc2n(CCC)c1=O: 74%

----------
Listed below: Population Tubulin-Different-Phenotype (%) values for each entry.
Tested on: U2OS
MEASUREMENT_DESCRIPTION: Multiplex assay against U2OS
Format: toxicity, cell-based
CONDITION_LABEL: human, 12 h, 10 µM, compound concentration 10 uM, replicate 2
QUANTITY_KIND: Population Tubulin-Different-Phenotype (%)

* CC(C)Oc1ccc(C(=O)N[C@H](CNC(=O)CN(C)C)Cc2ccc(-c3cn4cccc([C@H](C)O)c4n3)cc2)cc1Cl [GSK-923295A] | 100
* Cc1cc2c(cc1N1C(=O)c3cccc4c(CCCO)ccc(c34)C1=O)n(C)c(=O)n2C | 96
* Cc1cn(-c2cc(NC(=O)c3ccc4c(c3)CN(c3cncnc3)C[C@@H]4C)cc(C(F)(F)F)c2)cn1 | 17

----------
Tested on: HEK-293T
MEASUREMENT_DESCRIPTION: Multiplex assay against HEK293T
Assay type: toxicity, cell-based
CONDITION_LABEL: human, 12 h, 10 µM, compound concentration 10 uM, replicate 2
Listed below: Population Normal (%) values for each entry.
QUANTITY_KIND: Population Normal (%)

• Cc1nc(Cc2cccc(C(F)(F)F)c2)sc1-c1ccc(C(N)=O)nc1 [TP-024n] = 90
• CCn1c(-c2nonc2N)nc2cnc(Oc3cccc(NC(=O)c4ccc(OCCN5CCOCC5)cc4)c3)cc21 [GSK-269962A] = 92
• CCOc1cc2ncc(C#N)c(Nc3ccc(OCc4cccc(F)c4)c(Cl)c3)c2cc1NC(=O)/C=C/CN(C)C = 97
• COc1ccc(NS(=O)(=O)c2sc3ccc(Cl)cc3c2C)cc1N1CCNCC1.Cl = 95
• Nc1nc2c(c(N3CCNCC3)n1)CCC1=C2[C@@H]2CCCC[C@@H]2O1 = 92

Where do these numbers come from? They come from ChEMBL document CHEMBL4689842.
